Data provenance: paper PMC4175335

Target Under Test: T1, DsrE3A (Mcup_0681) of Metallosphaera cuprina Ar-4, N-terminally His-tagged (Metallosphaera cuprina Ar-4, UniProt F4G1H3 1-133)
T1 construct: DsrE3A, locus Mcup_0681, Metallosphaera cuprina Ar-4; gene amplified from genomic DNA into pET15b; theoretical mass with His tag 17,697 Da; Homotrimer by gel filtration
T1 sequence (looked up): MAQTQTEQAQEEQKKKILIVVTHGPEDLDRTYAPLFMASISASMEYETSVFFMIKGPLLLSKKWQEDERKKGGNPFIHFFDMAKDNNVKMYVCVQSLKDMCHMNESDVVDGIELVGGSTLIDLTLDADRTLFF
Experiment: SPR; Biacore 3000, CM5 chip, 25 °C; DsrE3A covalently immobilised (about 1500 RU); TusA as analyte in PBST (PBS, 0.005% Tween 20, pH 7.4), 30 μl/min, 2 min injection, 8 min dissociation
Test Parameters: both partners purified
Experimental Endpoint: pKd
Conceptually, pKd converts a concentration in mol/L into minus its log10.

Sample TusA (Mcup_0683) of Metallosphaera cuprina Ar-4, N-terminally His-tagged (natural protein, UniProt F4G1H5 1-80, looked up, TusA, locus Mcup_0683, Metallosphaera cuprina Ar-4; gene amplified from genomic DNA into pET15b; theoretical mass with His tag 10,895 Da; Occurs as monomers and dimers) MAQDVKITKTLDVKGMYCPGPVMETAKAIKQINVGEVLEVLATDPAAKPDIEAWARRTGNQILDIQQQGGVTRILVKRAK ; pKd observed: 10.00
